# RUN_DESCRIPTION: refractive index (Na D-line) (dimensionless); xn = mol fraction of the nth substance listed
# STATED_CONDITIONS: 318.15 K; 100.5 kPa; Liquid; Standard Abbe refractometry; x1 = 0.15
Numbers after ± are expanded uncertainties.
PROPERTY_MEASURED: refractive index

compound="CCOC(=O)CC(C)C [ethyl 3-methylbutanoate] + CCO" readout_value="1.36186 ± 0.00032"
compound="CCOC(=O)CC(C)=O [ethyl 3-oxobutanoate] + CCO" readout_value="1.3672 ± 0.0003"
compound="COC(=O)c1ccccc1 [methyl benzoate] + CCO" readout_value="1.39488 ± 0.00032"
compound="CCOC(=O)c1ccccc1O [ethyl 2-hydroxybenzoate] + CCO" readout_value="1.40202 ± 0.00032"
compound="CCC(=O)OCc1ccccc1 [benzyl propanoate] + CCO" readout_value="1.39583 ± 0.00032"
compound="CC(=O)OCc1ccccc1 [benzyl ethanoate] + CCO" readout_value="1.39409 ± 0.00032"

* * *

Catalogue of surface tension liquid-gas readings, one per entry.
# RUN_DESCRIPTION: xn = mol fraction of the nth substance listed
# STATED_CONDITIONS: 308.15 K, Wilhelmy plate method, x1 = 0.3
PROPERTY_MEASURED: surface tension liquid-gas (mN/m)

compound="CCOC(=O)CC(C)C [ethyl 3-methylbutanoate] + CCO" property_measured="surface tension liquid-gas" readout_value=21.86
compound="CCOC(=O)CC(C)=O [ethyl 3-oxobutanoate] + CCO" property_measured="surface tension liquid-gas" readout_value=24.38
compound="CCOC(=O)c1ccccc1O [ethyl 2-hydroxybenzoate] + CCO" property_measured="surface tension liquid-gas" readout_value=25.17
compound="CC(=O)OCc1ccccc1 [benzyl ethanoate] + CCO" property_measured="surface tension liquid-gas" readout_value=25.43
compound="COC(=O)c1ccccc1 [methyl benzoate] + CCO" property_measured="surface tension liquid-gas" readout_value=25.59
compound="CCC(=O)OCc1ccccc1 [benzyl propanoate] + CCO" property_measured="surface tension liquid-gas" readout_value=25.32

* * *

# RUN_DESCRIPTION: refractive index (Na D-line) (dimensionless); xn = mol fraction of the nth substance listed
# STATED_CONDITIONS: 308.15 K; 100.5 kPa; Liquid; Standard Abbe refractometry; x1 = 0.9
PROPERTY_MEASURED: refractive index

molecule="CC(=O)OCc1ccccc1 [benzyl ethanoate] + CCO" readout_value=1.48959
molecule="CCOC(=O)c1ccccc1O [ethyl 2-hydroxybenzoate] + CCO" readout_value=1.50938
molecule="CCOC(=O)CC(C)C [ethyl 3-methylbutanoate] + CCO" readout_value=1.38779
molecule="COC(=O)c1ccccc1 [methyl benzoate] + CCO" readout_value=1.5026
molecule="CCOC(=O)CC(C)=O [ethyl 3-oxobutanoate] + CCO" readout_value=1.4099
molecule="CCC(=O)OCc1ccccc1 [benzyl propanoate] + CCO" readout_value=1.48574

* * *

Catalogue of refractive index readings, one per entry.
# RUN_DESCRIPTION: refractive index (Na D-line) (dimensionless); xn = mol fraction of the nth substance listed
# STATED_CONDITIONS: 298.18 K; 100.5 kPa; Liquid; Standard Abbe refractometry; x1 = 0.8
Numbers after ± are expanded uncertainties.
PROPERTY_MEASURED: refractive index

compound="CCOC(=O)CC(C)C [ethyl 3-methylbutanoate] + CCO" readout_value="1.39083 ± 0.00035"
compound="CC(=O)OCc1ccccc1 [benzyl ethanoate] + CCO" readout_value="1.48729 ± 0.00032"
compound="COC(=O)c1ccccc1 [methyl benzoate] + CCO" readout_value="1.49926 ± 0.00034"
compound="CCOC(=O)c1ccccc1O [ethyl 2-hydroxybenzoate] + CCO" readout_value="1.50649 ± 0.00032"
compound="CCC(=O)OCc1ccccc1 [benzyl propanoate] + CCO" readout_value="1.48419 ± 0.00033"
compound="CCOC(=O)CC(C)=O [ethyl 3-oxobutanoate] + CCO" readout_value="1.4111 ± 0.0003"

* * *

# RUN_DESCRIPTION: refractive index (Na D-line) (dimensionless); xn = mol fraction of the nth substance listed
# STATED_CONDITIONS: 288.15 K; 100.5 kPa; Liquid; Standard Abbe refractometry; x1 = 0.9
PROPERTY_MEASURED: refractive index

compound="CCOC(=O)c1ccccc1O [ethyl 2-hydroxybenzoate] + CCO" readout_value=1.51852
compound="CCOC(=O)CC(C)C [ethyl 3-methylbutanoate] + CCO" readout_value=1.39729
compound="CC(=O)OCc1ccccc1 [benzyl ethanoate] + CCO" readout_value=1.49871
compound="COC(=O)c1ccccc1 [methyl benzoate] + CCO" readout_value=1.512
compound="CCOC(=O)CC(C)=O [ethyl 3-oxobutanoate] + CCO" readout_value=1.4184
compound="CCC(=O)OCc1ccccc1 [benzyl propanoate] + CCO" readout_value=1.49464

* * *

# RUN_DESCRIPTION: xn = mol fraction of the nth substance listed
# STATED_CONDITIONS: 288.15 K, Wilhelmy plate method, x1 = 0.5
PROPERTY_MEASURED: surface tension liquid-gas (mN/m)

compound="CC(=O)OCc1ccccc1 [benzyl ethanoate] + CCO" units_label=mN/m readout_value=30.1
compound="CCC(=O)OCc1ccccc1 [benzyl propanoate] + CCO" units_label=mN/m readout_value=29.4
compound="CCOC(=O)CC(C)=O [ethyl 3-oxobutanoate] + CCO" units_label=mN/m readout_value=28.35
compound="COC(=O)c1ccccc1 [methyl benzoate] + CCO" units_label=mN/m readout_value=30.33
compound="CCOC(=O)c1ccccc1O [ethyl 2-hydroxybenzoate] + CCO" units_label=mN/m readout_value=29.13
compound="CCOC(=O)CC(C)C [ethyl 3-methylbutanoate] + CCO" units_label=mN/m readout_value=23.88

* * *

# RUN_DESCRIPTION: xn = mol fraction of the nth substance listed
# STATED_CONDITIONS: 298.18 K, Wilhelmy plate method, x1 = 0.05
Catalogue of surface tension liquid-gas readings, one per entry.
PROPERTY_MEASURED: surface tension liquid-gas (mN/m)

molecule="CC(=O)OCc1ccccc1 [benzyl ethanoate] + CCO" readout_value=23.2
molecule="CCOC(=O)CC(C)C [ethyl 3-methylbutanoate] + CCO" readout_value=22.4
molecule="COC(=O)c1ccccc1 [methyl benzoate] + CCO" readout_value=23
molecule="CCC(=O)OCc1ccccc1 [benzyl propanoate] + CCO" readout_value=23.2
molecule="CCOC(=O)CC(C)=O [ethyl 3-oxobutanoate] + CCO" readout_value=22.77
molecule="CCOC(=O)c1ccccc1O [ethyl 2-hydroxybenzoate] + CCO" readout_value=23.17

* * *

Catalogue of refractive index readings, one per entry.
# RUN_DESCRIPTION: refractive index (Na D-line) (dimensionless); xn = mol fraction of the nth substance listed
# STATED_CONDITIONS: 288.15 K; 100.5 kPa; Liquid; Standard Abbe refractometry; x1 = 0.95
± gives the expanded uncertainty stated by the source.
PROPERTY_MEASURED: refractive index

compound="COC(=O)c1ccccc1 [methyl benzoate] + CCO" readout_value="1.51569 ± 0.00035"
compound="CCOC(=O)CC(C)C [ethyl 3-methylbutanoate] + CCO" readout_value="1.39807 ± 0.00037"
compound="CCOC(=O)CC(C)=O [ethyl 3-oxobutanoate] + CCO" readout_value="1.4198 ± 0.0004"
compound="CCOC(=O)c1ccccc1O [ethyl 2-hydroxybenzoate] + CCO" readout_value="1.52184 ± 0.00032"
compound="CCC(=O)OCc1ccccc1 [benzyl propanoate] + CCO" readout_value="1.49721 ± 0.00033"
compound="CC(=O)OCc1ccccc1 [benzyl ethanoate] + CCO" readout_value="1.5017 ± 0.00032"

* * *

Catalogue of surface tension liquid-gas readings, one per entry.
# RUN_DESCRIPTION: xn = mol fraction of the nth substance listed
# STATED_CONDITIONS: 308.15 K, Wilhelmy plate method, x1 = 0.45
PROPERTY_MEASURED: surface tension liquid-gas (mN/m)

compound="CCOC(=O)c1ccccc1O [ethyl 2-hydroxybenzoate] + CCO" property_measured="surface tension liquid-gas" readout_value=26.58
compound="CCC(=O)OCc1ccccc1 [benzyl propanoate] + CCO" property_measured="surface tension liquid-gas" readout_value=26.82
compound="COC(=O)c1ccccc1 [methyl benzoate] + CCO" property_measured="surface tension liquid-gas" readout_value=27.4
compound="CCOC(=O)CC(C)=O [ethyl 3-oxobutanoate] + CCO" property_measured="surface tension liquid-gas" readout_value=25.81
compound="CCOC(=O)CC(C)C [ethyl 3-methylbutanoate] + CCO" property_measured="surface tension liquid-gas" readout_value=22
compound="CC(=O)OCc1ccccc1 [benzyl ethanoate] + CCO" property_measured="surface tension liquid-gas" readout_value=27.38

* * *

# RUN_DESCRIPTION: refractive index (Na D-line) (dimensionless); xn = mol fraction of the nth substance listed
# STATED_CONDITIONS: 298.18 K; 100.5 kPa; Liquid; Standard Abbe refractometry; x1 = 0.25
Numbers after ± are expanded uncertainties.
Catalogue of refractive index readings, one per entry.
PROPERTY_MEASURED: refractive index

compound="CCOC(=O)c1ccccc1O [ethyl 2-hydroxybenzoate] + CCO" property_measured="refractive index" readout_value="1.43468 ± 0.00032"
compound="CCOC(=O)CC(C)C [ethyl 3-methylbutanoate] + CCO" property_measured="refractive index" readout_value="1.37554 ± 0.00032"
compound="CCOC(=O)CC(C)=O [ethyl 3-oxobutanoate] + CCO" property_measured="refractive index" readout_value="1.384 ± 0.0003"
compound="CCC(=O)OCc1ccccc1 [benzyl propanoate] + CCO" property_measured="refractive index" readout_value="1.42524 ± 0.00032"
compound="CC(=O)OCc1ccccc1 [benzyl ethanoate] + CCO" property_measured="refractive index" readout_value="1.42372 ± 0.00032"
compound="COC(=O)c1ccccc1 [methyl benzoate] + CCO" property_measured="refractive index" readout_value="1.42606 ± 0.00032"
